Test system: K4 kissing-loop RNA reporter;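 further: bound reporter read as fluorescence of individual clusters on recovered sequencing chips by microscopy, with normalized cluster intensities fitted with a binding model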
Assay: apparent KD of K4 kissing-loop reporter; higher = weaker reporter binding
Details: Eterna round: R107; input ligand: tryptophan 2.4 mM
measuredMetric: apparent KD of K4 kissing-loop reporter (nM)
Record the value in nM, omitting the unit from your answer.

| biosequence | number |
| --- | --- |
| UGAUAGGACAGAAGGAGCGGUAGUGAUGUUACCAAAAGAAUAAGGUGUCAAAAGACACCCUACCAGGUAGGUCGCUGUCCUAUCU | 179 |
| GGUCCGGGCUCGGCCGCCACUCCCUCCUGCCGUAAGGUGGGAUACCGAGUGAUGUUCGGUUGGAGGAGGACCGGGAGCCCGGACC [#2 Exclusion - Tryptophan B Attempt #15 (HarryS)] | 107 |
| UGUCAUGGAAACAUGAACGUUGAUGUUCGACGAGGACCGGUACGGCCGCCACUCGAGUAAUAGUCAGUGAUGUUGACUAGUCUAA [KL-SSTryp-A form1] | 75.7 |
| AGACUACCACACUGUCAAUAGACAGUGUACUAGGAUAUGCUGAUAAGCAGAAGGAGUGAUGUUCCCAGGUAGUCAAUAAAAUAAU [FmnAX 13 U28+C66] | 225 |
| UUUUUAUAAGAGGAUACCAGUACAAAUAAAGUACAUUAAUAGUAGAGUGAUGUUCUAAAGUACCCUUGGCAGCUUAGAUUAAGUU [ExTheophylB.D] | 117 |
| AAUAAAAUCACGGCCGCCACUGAUUAGCAUAUUAGGAGUGAUGUUUCUAUGACUAUAUAAUUGAACAGGACCGGGUGAAUAUUUA [#20 K4 Tryptophan B Exclusion] | 400 |
| GGGCGGCAGACGGCCGCCACUCAUAGCAGCCAGUGAGUGAUGUUCGUGGCGGAGUGAUGUUCCUAGAGGACCGGGUUUGUUGUUC [Same State Tryptophan B GF 19] | 596 |
| UAUCCUCGCUGAAGGAGCGAGCAUGAAGCAGUGAUGUUCCGAGCGAGUGAUGUUCGCAUAGCUCAGGUAGGUCGCAGUGGGAUUU [Same State Arginie B GF 17] | 530 |

What value of apparent KD of K4 kissing-loop reporter has been reported for the following sequence? UGUUAUGGGUGAGGAUAUGCUGACGAUGCGGGUGCGAGUGAUGUUGGUGUGGCUGGUGUCGUUUGUGCAGAAGGCACGCUCGUGG [BDazzled] 811

Need apparent KD of K4 kissing-loop reporter of AAGUGAUGUUGUAGUGAUGUUGUGAUGUUGCAGGAUAUAUAGUGAUGUAGAAGGGUAAGUACUUAUUUUUUUUUUGAGUUAUGUU [crrczrmullin] , thanks. 65.4

Reported apparent KD of K4 kissing-loop reporter, sequence AAUGUACAGGGAAGGAGCGUCGUCCAGUGAUGUUGGAGUUAAAUACCAGUGAUGUUGGUUAGACAGGUAGGUCGCCCUAAAGUGC [Exclusion Arginine B Gf 3] : ____ 88

apparent KD of K4 kissing-loop reporter lookup needed for UGACAUUGCUCAGAUACCAGACCUGAGGAUCACCCAGGUGCCAAAACGUACUAAAUAAAGGUCCCUUGGCAGCUGAGCAAUGUCU [TheoBX 13] , thanks. 65.4

---

Test system: MS2 coat protein
Assay: apparent KD of MS2 coat protein; designed switch direction (-1 OFF switch, 1 ON switch): -1; higher = weaker reporter binding
Conditions: input ligand: microRNA oligo, concentration not stated
measuredMetric: apparent KD of MS2 coat protein (µM)
Your answer is read as µM, so omit the unit and give the number.

| biosequence | apparent KD of MS2 coat protein [µM] |
| --- | --- |
| UUAAUUAAUUAAGGCUGAAGAUCACAUGAGGAUCACCCAUGUAAGGAUAUCAGCUCGUGUAGAGCUGAGAAGGUACAUGCAGCC [ExNG3/18-B3] (Eterna round: R96, puzzle: Exclusion NG 3) | 0.345 |
| AUUAUAUAGUCAGGAUAUAGAAUAUUAUUUUAACAUGAGGAUCACCCAUGUAACCUUAUGUGUAGCUAGAAGGGACAUUUAUUA [Title] (Eterna round: R96, puzzle: Exclusion NG 2) | 0.0766 |

Please examine the following record next.
Item: CAGGAACCAGCAGGAUAUGUGCGGCUGCUAACGUGAACCAACAUGAGGAUCACCCAUGUAGGCACGCAGAAGGGCUCAGCCUGC [Orgevebe] (Eterna round: R96, puzzle: Exclusion NG 2) Test system: MS2 coat protein Read-out: apparent KD of MS2 coat protein Value: ? 0.0106

---

System: MS2 coat protein
Test: apparent KD of MS2 coat protein; designed switch direction (-1 OFF switch, 1 ON switch): -1; higher = weaker reporter binding
Settings: input ligand: microRNA oligo, concentration not stated
measuredMetric: apparent KD of MS2 coat protein (µM)
Provide only the numeric value, understood in µM.

Dear colleague, I am looking for the recorded apparent KD of MS2 coat protein of the following sequence: AAAAGAACGGCAGGAUAUGCAAGCACUGACCUCCCAAAAUAAAGAAACAUGAGGAUCACCCAUGUGCAGAAGGGCCAAAAGUGC [Vediusin] (Eterna round: R96, puzzle: Exclusion NG 2) 0.0104

// lookup apparent KD of MS2 coat protein for AGUACUAUCACGAAAGUGAUAGUACAAAUAAGCUUUAGAACAUGAGGAUCACCCAUGUCCUCUUAAGCUCGUCUUAU [Mat - Sensor v2 -ver2- JL mod - D56] (Eterna round: R96, puzzle: Sensor v2, turn-off variant 2) 0.143

---

Test system: MS2 coat protein
Experiment: apparent KD of MS2 coat protein; designed switch direction (-1 OFF switch, 1 ON switch): -1; higher = weaker reporter binding
Details: Eterna round: R98; input ligand: FMN 200 uM
measuredMetric: apparent KD of MS2 coat protein (nM)
Write down the numeric answer in nM and omit the unit.

| biosequence | number |
| --- | --- |
| UCAUAAUAGAUCCUAUUUAUCUACAUGAGGAUCACCCAUGUGCAGGAUAUGCUAAAAUUAAAAUAGCAGAAGGGCAAUUUCAGC [JR_ExcNG3_Sub013] | 359 |

GET /values?readout=apparent KD of MS2 coat protein&item= UUCUGUGCCCAAAGUUUAAGCACAUGAGGAUCACCCAUGUGAAAGGAUAUGUGGCAUGUAAUGUUAUAGAAGGUUCACAAUCAA [Esadi] 23.9

What value of apparent KD of MS2 coat protein has been recorded for this entry: CCAUAAAAGAUCCAAAAUUACAACAUGAGGAUCACCCAUGUGCAGGAUAUCGUGAAAGUAAAAUACGAGAAGGGCAAGAACUGC [salish99_ExNG3_r2_004] 425

Reported apparent KD of MS2 coat protein for UGGUAUAAGGGCAUUACACAUGAGGAUCACCCAUGUACGUUAGAGGAUAUGCAUUCCAGUCGAACGUAGAAGGUUAGAGAAGGG [Morebubblesahh#8abcdefghij] : what is it? 150

---

Test system: MS2 coat protein
Test: apparent KD of MS2 coat protein; designed switch direction (-1 OFF switch, 1 ON switch): -1; higher = weaker reporter binding
Details: Eterna round: R95; input ligand: microRNA oligo, concentration not stated
The following sequences are shown together with reported apparent KD of MS2 coat protein values.

In the examples that follow, each entry is paired with its recorded apparent KD of MS2 coat protein.
| biosequence | tgt | apparent KD of MS2 coat protein |
| --- | --- | --- |
| CCGGAAGUACAGGAUAUCGUAACGGAUACGUUACGAGAAGGGUAUACAUGAGGAUCACCCAUGUGUCCUACCGG [Mat - Exclusion 6 - Eli Mod - D95] (puzzle: Exclusion 6) | MS2 coat protein | 26 nM |
| GGCACACAUGAGGAUCACCCAUGUGAGGAUAUGUUAGUUUCGGCCAAAGCCGAAAUUAACAGAAGGCACAUGCC [JR_Exclusion1_Sub021] (puzzle: Exclusion 1) | MS2 coat protein | 13.3 nM |
| CGGUACUGAGGAUAUACAUGAGGAUCACCCAUGUGUACUAGCUAGCGUACUGGCAUUAGUAGAAGGCGGUGCUG [JL-ex3-3.20 Brourd mod] (puzzle: Exclusion 3) | MS2 coat protein | 11.5 nM |

Bench note: what apparent KD of MS2 coat protein did UUUAAUUUUUUUUUUUUACAAGCUUUUUGCUCGUCUUAUACAUGAGGAUCACCCAUGUAGGUGGAGGAUAAAUUAUC [JMF 36] (puzzle: Sensor v3, turn-off variant 2) show? 56.1 nM

I would be grateful if you could share the reported apparent KD of MS2 coat protein for CGUACUGAAGUUAGGAUAUUGUCUCGGAUACGAAACAAGAAGGGACAUGAGGAUCACCCAUGUAGACAGUACGA [Malc #30 mod 4] (puzzle: Brourd's mod of Exclusion 4) . 27.1 nM

Value lookup for apparent KD of MS2 coat protein; key = GCCAGAGCAGGAUAUUCAAUAAUCCACAUGAGGAUCACCCAUGUCCAGCGAAAGCUGGAGGGAGAAGGGCUCUGGC [Fiskers Ex 5 - 7] (puzzle: Exclusion 5) 73.4 nM

# query: apparent KD of MS2 coat protein of entry AGUACUGACACGAAAGUGUUAGUACAAUAAGCUUGUGAAACAUGAGGAUCACCCAUGUCCUCAUAAGCUCGUCUUAU [salish99_TOv2_r3_017] (puzzle: Sensor v3, turn-off variant 2) 1200 nM

What measured apparent KD of MS2 coat protein goes with CAUGUCCGAGGAUAUAUUAUGUGAAACAUGAGGAUCACCCAUGUUAUAUGAUGGAUGUAAAUAGAAGGCGGACGUG [Mat - Exclusion 5 - JL mod - D65] (puzzle: Exclusion 5) ? 31.6 nM

Name the reported apparent KD of MS2 coat protein value associated with the sequence AAUUUAACAUAGGAUAUCGAAUUUAUCAUUUAACGAGAAGGAUGAACAUGAGGAUCACCCAUGUGGUAUCAUGG [Mat - Exclusion 6 - JL Mod - D2] (puzzle: Exclusion 6) 373 nM

Quick check: apparent KD of MS2 coat protein of UAAUACAAGCAAAGAUCCUACAUGAGGAUCACCCAUGUGCUCGUCUUGUAAAGUACUAUCACGAAAGUGAUAGUACA [Mat - Sensor v3 - turn-off var 1 - Eli Mod - D77] (puzzle: Sensor v3, turn-off variant 1) ? 17.1 nM
